# Tested on: SK-N-SH
# ASSAY NAME: Cytotoxicity against human SK-N-SH cells assessed as inhibition of cell growth after 48 hrs by MTT assay
# Format: functional, cell-based
Consider the following molecules; for each one, report its pIC50.
Give bare numbers, as −log10 of the molar value.

Worked cases, pIC50 given:
                                   molecule  measured_number
0  O=C1c2nc3ccccc3cc2CN1CC(O)CN1CCN(c2ccccc2)CC1 (racemic)             4.19
1  CC(=O)O[C@H](CN1CCN(c2ccccc2)CC1)CN1Cc2cc3ccccc3nc2C1=O             4.17
2  COc1cccc2c1C(=O)c1c(O)c3c(c(O)c1C2=O)C[C@@](O)(C(=O)CO)C[C@@H]3O[C@H]1C[C@H](N)[C@H](O)[C@H](C)O1 [DOXORUBICIN]             4.70

--- query ---
Which value of pIC50 has been reported for O=C1c2nc3ccccc3cc2CN1C[C@@H](O)CN1CCN(c2ccccc2)CC1 in the records? 4.79
